Would you mind telling me the reported SPOT intensity of each entry?
- test_system: T1, Hse1, P38753
- T1 sequence (P38753 208-285, looked up): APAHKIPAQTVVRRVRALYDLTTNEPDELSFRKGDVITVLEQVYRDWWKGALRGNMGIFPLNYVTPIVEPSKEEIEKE
- assay: SPOT array
- test_settings: median of control spots 1727
Write the value as a bare number.

Req: Recorded SPOT intensity of LPMNIQPDLPPRKIM , please.
Resp: 3

Req: What about WRPRIVPILPYITRL ?
Resp: 11

Req: What about LLIRWLILMPLVGSR ?
Resp: 25

Req: What about NAGIRPKFILALNDE ?
Resp: 2

Req: What about MARRRLPDRPPNGIG ?
Resp: 126

Req: What about TSIEIPKRSPLRFTS ?
Resp: 0

Req: What about QTREPNEPPPPSPAM ?
Resp: 0

Req: What about PPPPPPPPPPLPQSL ?
Resp: 0

Req: What about RKRRTHLRLPLIRSN ?
Resp: 6

Req: What about DKKTKPTPPPKPSHL ?
Resp: 4

Req: What about DGNEEKPLLPTRPNK ?
Resp: 1

Req: What about RPVPPPPPMRTTTEG ?
Resp: 9

Req: What about GRSRLFPHSPLGRSS ?
Resp: 9

Req: What about FFRRSELYLPNSSKA ?
Resp: 43

Req: What about ALRRRLPVTRSKINW ?
Resp: 35
